Documented pH of filtrate across a set of molecules
# Protocol Description: Dynamic solubility experiment at 37° C.
# Type: physicochemical
# Assay Setup: FeSSIF, 4 h
Where a name gives a salt, the structure may show the parent alone.
Please respond with just the number, no unit label.

Previously resolved entries follow.
{"columns": ["Molecule", "Assay Value"],
 "data": [
  ["Cc1cnc(-c2cc(O[C@@H](C)[C@@H](C)O)cc(C(=O)N[C@H](C)c3cnc(C(F)(F)F)nc3)c2F)s1 [Free base crystalline form A]", 5.0],
  ["Cc1cnc(-c2cc(O[C@@H](C)[C@@H](C)O)cc(C(=O)N[C@H](C)c3cnc(C(F)(F)F)nc3)c2F)s1 [Crystalline form A of p-toluenesulfonate]", 4.8],
  ["Cc1cnc(-c2cc(O[C@@H](C)[C@@H](C)O)cc(C(=O)N[C@H](C)c3cnc(C(F)(F)F)nc3)c2F)s1 [Crystalline form A of maleate]", 4.9]
]}

So what does the record say about pH of filtrate for Cc1cnc(-c2cc(O[C@@H](C)[C@@H](C)O)cc(C(=O)N[C@H](C)c3cnc(C(F)(F)F)nc3)c2F)s1 [Crystalline form A of hydrochloride] ? 4.9
